- assay_name: yeast display, Sf9 membrane polyspecificity reagent, FACS + sequencing; frameworks hold sequencing errors
quantity_measured: polyreactivity (PSR sort gate)

Some entries whose results are on file:
>>> assay_result("QVQLVESGGGLVQAGGSLRLRCAAYGSIFDKNSMGWYRQAPGKERELVAAITRSGRSTYYADSVKGRFTISRDNAKNTVYLQMNSLKPEDTALYYCAADVWPRWGLYYWGQGTQVTVTS")
"high polyreactivity"
>>> assay_result("QVQHVESGGGLVLAGGSLRLSCAASGRTFAYNAMGWYRQAPGKERELVAAISRSGGSTYYADSVKGRFTISRDNPKNTVYLQMYSLKPEDTAVYYSNKVTHSYVYFAAGDYWGQGTQVTVSS")
"high polyreactivity"
>>> assay_result("QVQLVESGGGLVQAGGSLRLSCAASGFILARYAMGWYRQAPGKERELVAVISSGGSSTFYADSVKGRFTISRDNAKNTVYLQMNSLKPEDTAVYYCAARYKSSKKVGFDYWGQGTQVTVSS")
"high polyreactivity"
>>> assay_result("QVQLQESGGGLVQAGVSLRLSCAASGYISIEEDISWFCQAPGKERELVASITYGAITYYADSVKGRLTISSDNAKNTVYRQMNCLKPEDTAEYYCAVSYDYQQYYVSCGQGTQVTVSS")
"low polyreactivity"
>>> assay_result("QDQLVESGGGLVQAGGSLRLSCAASGRTFTYYTMGWYRQAPGKERELVAAITWSGGRTYYADSVKGRFTISRDYAKNTVYLQMNSLKPEDTAVYYCAKPPQGTYDYWGQGTQVNVSS")
"low polyreactivity"
>>> assay_result("QVQLVVSGGGLVQAGGSLRLRCAASGRTIWPYAMGWYRQAPRKESEFDAAITWTVGRTYYADSVKGRFTISRDNAKNTVYLQMNSLKPDDTAVYYCNARSYSQTLFGYPDDYWGQGTQVTVSS")
"high polyreactivity"
>>> assay_result("QVQLVESGGGLVQAGGSLRLSCAASGRIFTTYVMGCYRQAPGKERELVAAISWSGGNTYYADSVKGRFTISRDNAKNTVYLQMNSLKPEDTAVYYCNAVGTIREGDYWGQGTQVTVSS")
"low polyreactivity"
>>> assay_result("QVQLVESGGGLVQAGGSLRLSCAASGIIFAYNAMGWYRQAPGKEWELVAGITRNDGSTNYADSVKGRFTISRYNAMNTVYLQMNSLKPEDTAVYYCATGGWRWQRNPSYDYWGQGNQVTVSS")
"low polyreactivity"
>>> assay_result("QVQLVESGGGLVQAGGSLRLSCAASGSIGVNAMGWYRQAPGKERELVATISNSGGSTYYADSVKGRFTISRDNAKNTVYLQINSLKPEDTAVYYCAVAVTSYSSKKLYYWGQGTQVTVSS")
"low polyreactivity"
>>> assay_result("QVQLVQSGGGLVQAGGSLRLSCAASGLTFYYNVMGWYRQATGKERELVAAITSGGRTYYGDSVKGRFTISRDNAKNTVYLQMNSLKPEDTAVYYCARPYSRAYDYWGQGTEVTVSS")
"high polyreactivity"

Ask: Consider the sequence `QVQLVESGGGLVQAGGSLRLSCAASGSTFRYNAMGWYRQAPGKERELVAAINWSGSSTYYADSVKGRVTISRDNAKNTVYLQMNRLKPEDTAVNYCAAERPWYTKWGEYWGQGTQVTVSS` and give its recorded polyreactivity (PSR sort gate).
Result: high polyreactivity

Ask: Fill in polyreactivity (PSR sort gate) for record `QVQLVESGGGLVQAGGSLRLSCAASGSIFHRNAMGWYRQAPGKEREFVAAISWRGGSTYYADSVKGRFTISRDNAKNTVYLQMNSLKPEDTAVYYCAADPVGYYWSRRSEFYYWGQGTQVTVSS`
Result: high polyreactivity

Ask: Specify measured polyreactivity (PSR sort gate) for `QVQLVESGGCLVQAGGSLRLSCAASGSTYKLNAMGWYRQAPGKEREMVAAISRGGRTNYADSVKGRFTISRDNAKNTVYFQMNSLNPEDTAVYYCAKDVAGLFHVGALYYYWGQGSQVTVSS` .
Result: low polyreactivity
